# Experimental Target: Concanavalin-A (Canavalia ensiformis) (UniProt P02866)
# Sequence (P02866 whole entry, looked up): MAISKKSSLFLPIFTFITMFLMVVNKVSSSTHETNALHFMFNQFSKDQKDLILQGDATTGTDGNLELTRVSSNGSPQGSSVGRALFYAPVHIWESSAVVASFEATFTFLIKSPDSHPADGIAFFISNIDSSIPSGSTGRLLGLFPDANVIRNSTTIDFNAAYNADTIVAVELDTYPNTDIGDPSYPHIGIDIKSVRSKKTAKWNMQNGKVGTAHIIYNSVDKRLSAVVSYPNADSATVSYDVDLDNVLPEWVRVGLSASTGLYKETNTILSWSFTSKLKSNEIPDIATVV
# Assay Notes: compounds binding concanavalin A lectin – biochemical, small-molecule microarray, Alexa647 label, 635 nm, artefact control for SMM control protein annotation, primary screen (AID 1127);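 note: z combines 667 nm emission intensity with signal-to-noise across three replicate slides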
# Condition Parameters: ConA-A647 binding fluorescence, higher = more signal
Listed here are compounds together with their documented composite z-score.

Compound | composite z-score
COC(=O)[C@@]1(Cc2ccccc2)N=C(c2ccc(OCCCO)cc2)O[C@H]1c1ccccc1CN=[N+]=[N-] | 0.505
C=CCNC(=O)[C@H]1[C@@H]2C(=O)O[C@@H](c3ccccc3)[C@@H](c3ccccc3)N2[C@@H](c2ccc(OCCO)cc2)[C@]12C(=O)Nc1ccccc12 | 1.13
Cc1ccccc1C(O)C1C=CC2C(=O)N(c3ccccc3)C(=O)C2N1Nc1ccccc1 (stereo not given) | 1.14
COc1ccc([Si](C)(C)[C@H]2[C@H](CCO)O[C@@]3(C(=O)N(Cc4cccc(N5C(=O)c6ccccc6Oc6ccccc65)c4)c4ccccc43)[C@@H]2C)cc1 | 0.843
C=CCOC(=O)[C@H]1[C@@H]2C(=O)O[C@@H](c3ccccc3)[C@@H](c3ccccc3)N2[C@@H](c2ccc(OCCOC(=O)[C@H]3C[C@H]4C(=O)N[C@@H](CC(C)C)C(=O)N4[C@H]3c3ccc(O)cc3)cc2)[C@]12C(=O)Nc1ccccc12 | 1.06
COCCOC(=O)N1C(=O)[C@@]2(c3cc(C#CCCO)ccc31)[C@H](c1ccc(OCCO)cc1)N1[C@H](c3ccccc3)[C@H](c3ccccc3)OC(=O)[C@H]1[C@@H]2C(=O)N1CCCCCCC1 | 1.13
COc1ccc(C#Cc2ccc3c(c2)[C@]2(C(=O)N3)[C@H](C(=O)O)[C@H]3C(=O)O[C@H](c4ccccc4)[C@H](c4ccccc4)N3[C@@H]2c2ccccc2OCCO)cc1 | 1.14
C[N+](C)(C)CCCC[C@@H]1NC(=O)[C@H]2C[C@@H](C(=O)NCCCCCNC(=O)CS)[C@@H](c3cccc(OCCO)c3)N2C1=O | 0.896
COC(=O)[C@@]1(Cc2ccc(OC)cc2)[C@H]2c3cc(C(=O)N4CCCC4)n(Cc4ccc(Cl)c(C(F)(F)F)c4)c3C[C@H]2CN1C(=O)c1ccccc1 | 1.2
C=CCN1C(=O)[C@]2(O[C@H](CCn3cc([C@H](O)c4ccccc4)nn3)[C@@H]([Si](C)(C)c3ccc(OC)cc3)[C@@H]2C)c2cc(NC(=O)c3ccc(OC)cc3)ccc21 | 0.543

Data credit: PubChem BioAssay
